# system under test: HDAC6 (Homo sapiens)
# Sequence (Q9UBN7 1-1215): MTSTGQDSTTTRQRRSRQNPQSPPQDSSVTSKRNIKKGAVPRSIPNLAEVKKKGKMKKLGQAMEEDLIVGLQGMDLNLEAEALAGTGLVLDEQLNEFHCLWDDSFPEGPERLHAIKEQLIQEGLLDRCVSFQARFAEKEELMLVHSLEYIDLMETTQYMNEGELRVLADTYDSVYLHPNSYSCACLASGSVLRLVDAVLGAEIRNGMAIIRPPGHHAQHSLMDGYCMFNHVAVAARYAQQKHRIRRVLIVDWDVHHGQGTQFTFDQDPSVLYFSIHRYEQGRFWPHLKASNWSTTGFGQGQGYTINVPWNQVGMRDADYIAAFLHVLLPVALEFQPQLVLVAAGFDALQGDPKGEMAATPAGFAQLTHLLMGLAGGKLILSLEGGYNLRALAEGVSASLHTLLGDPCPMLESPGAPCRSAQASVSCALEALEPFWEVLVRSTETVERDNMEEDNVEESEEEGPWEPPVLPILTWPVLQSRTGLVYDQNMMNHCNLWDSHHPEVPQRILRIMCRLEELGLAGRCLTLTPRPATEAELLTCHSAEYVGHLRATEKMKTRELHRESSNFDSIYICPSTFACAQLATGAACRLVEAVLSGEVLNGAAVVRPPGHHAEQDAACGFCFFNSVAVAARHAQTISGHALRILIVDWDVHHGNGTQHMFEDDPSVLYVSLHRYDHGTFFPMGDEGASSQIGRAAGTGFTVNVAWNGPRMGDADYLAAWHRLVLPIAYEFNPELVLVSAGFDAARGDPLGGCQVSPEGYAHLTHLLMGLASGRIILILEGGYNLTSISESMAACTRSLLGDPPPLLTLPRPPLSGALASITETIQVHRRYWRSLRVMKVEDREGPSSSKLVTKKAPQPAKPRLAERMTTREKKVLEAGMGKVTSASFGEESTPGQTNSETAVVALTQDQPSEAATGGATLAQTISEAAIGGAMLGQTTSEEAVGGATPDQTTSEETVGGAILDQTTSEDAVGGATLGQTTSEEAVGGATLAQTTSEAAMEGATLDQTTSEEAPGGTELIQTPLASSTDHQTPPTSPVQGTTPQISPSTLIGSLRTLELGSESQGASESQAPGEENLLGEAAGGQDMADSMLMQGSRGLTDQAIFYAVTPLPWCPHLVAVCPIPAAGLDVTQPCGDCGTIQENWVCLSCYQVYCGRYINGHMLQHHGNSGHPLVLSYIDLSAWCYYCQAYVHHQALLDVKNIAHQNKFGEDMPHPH
# measurement protocol: ELISA-based HDAC activity assay, HDAC6
# condition notes: HDAC6 over HDAC2; calculated from IC50 values
measured property: HDAC6 fold selectivity HDAC2 (fold)

Some solved cases for reference:
>  <compound>
CCCCCCC(CCCC(=O)Nc1ccccc1)CCC(=O)NO (racemic)

>  <readout units>
fold

>  <result number>
270

$$$$
>  <compound>
O=C(CC[C@@H](CCCC(=O)Nc1ccccc1)Cc1ccccc1)NO [(R)-1f]

>  <readout units>
fold

>  <result number>
540

$$$$

P. CCC(CCCC(=O)Nc1ccccc1)CCC(=O)NO (racemic)
Q. O=C(CC[C@H](CCCC(=O)Nc1ccccc1)Cc1ccccc1)NO [(S)-1f]
R. O=C(CCC(CCCC(=O)Nc1ccccc1)Cc1ccccc1)NO (racemic)
With regard to HDAC6 fold selectivity HDAC2, arrange the entries in ascending order, please. // ordering of labels required in reply
P, R, Q
(P: 31 fold, R: 270 fold, Q: 750 fold)
